Experiment: qHTS profiling for inhibitors of Plasmodium falciparum proliferation (AID 504749);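 note: 0% = DMSO vehicle and full inhibition = artemisinin control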
Settings: P. falciparum in erythrocytes, SYBR Green DNA, 72 h; at 28.7 µM (top of the series); parasite line B
Results filed as inconclusive are left out.
valueKind: activity, negative = inhibition (%)
The figure you give is taken to be in %; do not add the unit.

Sample records with activity, negative = inhibition:
Cc1scc2c1N(C(=O)CN1CCN(C)CC1)c1ccccc1NC2=O    4.05
CC(=O)[C@@]1(O)CC[C@H]2[C@@H]3CCC4=CC(=O)CC[C@]4(C)[C@H]3CC[C@@]21C    1.51
Cc1nnc(SCC2=C(C(=O)O)N3C(=O)[C@@H](NC(=O)Cn4cnnn4)[C@H]3SC2)s1    2.94
CN=C(NC#N)NCCSCc1nc[nH]c1C    -7.15
NC(=O)c1cn(Cc2c(F)cccc2F)nn1    0.958

For the molecule shown here, CCOC(=O)C1=C(C)NC(C)=C(C(=O)OC)C1c1cccc(Cl)c1Cl (stereo unspecified) , give the reported activity, negative = inhibition.
-5.02

For the molecule shown here, Brc1c(NC2=NCCN2)ccc2nccnc12 , give the reported activity, negative = inhibition.
3.95

For the molecule shown here, CN1CCN(CC(=O)N2c3ccccc3C(=O)Nc3cccnc32)CC1 , give the reported activity, negative = inhibition.
-8.28

For the molecule shown here, NCCCNCCSP(=O)(O)O , give the reported activity, negative = inhibition.
13.6

For the molecule shown here, C[C@H](CS)C(=O)N1CCC[C@H]1C(=O)O , give the reported activity, negative = inhibition.
10.2

For the molecule shown here, CN(C(=O)CCCOc1ccc2[nH]c(=O)ccc2c1)C1CCCCC1 , give the reported activity, negative = inhibition.
16
